test system: Pichia kudriavzevii; experiment: Antifungal activity against fluconazole-resistant Candida krusei assessed as FICI in presence of voriconazole; type: functional
MEASURED PROPERTY: fractional inhibitory concentration index (FICI)
# answer = number (no unit)

Lookup: fractional inhibitory concentration index (FICI) / Pichia kudriavzevii / `O=C(N/N=C/c1cc(Br)ccc1O)c1ccc(Br)cc1Br`
1.063

Lookup: fractional inhibitory concentration index (FICI) / Pichia kudriavzevii / `O=C(N/N=C/c1ccc(Br)cc1O)c1ccc(Br)cc1Br`
0.281

Lookup: fractional inhibitory concentration index (FICI) / Pichia kudriavzevii / `O=C(N/N=C/c1cc(Br)cc(Br)c1O)c1ccc(Br)c(Br)c1`
0.31

Lookup: fractional inhibitory concentration index (FICI) / Pichia kudriavzevii / `O=C(N/N=C/c1ccc(Br)cc1O)c1cc(Br)cc(Br)c1O`
0.018

Lookup: fractional inhibitory concentration index (FICI) / Pichia kudriavzevii / `O=C(N/N=C/c1cc(Cl)cc(Cl)c1O)c1ccc(Br)c(Br)c1`
1.03

* * *

Exercise: state measured fractional inhibitory concentration index (FICI) for each of the compounds provided.
tested on: Candida parapsilosis; assay: Antifungal activity against Candida parapsilosis assessed as FICI in presence of caspofungin; type: functional
# answer = number (no unit)

What does the record list as fractional inhibitory concentration index (FICI) for `O=C(N/N=C/c1cc(Br)ccc1O)c1ccc(Br)cc1Br` ?
1.5

What does the record list as fractional inhibitory concentration index (FICI) for `O=C(N/N=C/c1ccc(Br)cc1O)c1cc(Br)cc(Br)c1O` ?
2

What does the record list as fractional inhibitory concentration index (FICI) for `O=C(N/N=C/c1cc(Br)cc(Br)c1O)c1ccc(Br)c(Br)c1` ?
1.001

What does the record list as fractional inhibitory concentration index (FICI) for `O=C(N/N=C/c1ccc(Br)cc1O)c1ccc(Br)cc1Br` ?
2

What does the record list as fractional inhibitory concentration index (FICI) for `O=C(N/N=C/c1cc(Cl)cc(Cl)c1O)c1ccc(Br)c(Br)c1` ?
0.501

* * *

test system: Candida parapsilosis; experiment: Antifungal activity against Candida parapsilosis measured after 24 to 72 hrs; assay type: functional; settings: Lodderomyces parapsilosis
Exercise: state measured MIC80 for each of the compounds provided.
// units = µg/mL; emit number, no label

Lookup: MIC80 / Candida parapsilosis / `O=C(N/N=C/c1cc(Br)cc(Br)c1O)c1ccc(Br)c(Br)c1`
16

Lookup: MIC80 / Candida parapsilosis / `O=C(N/N=C/c1cc(Cl)cc(Cl)c1O)c1ccc(Br)c(Br)c1`
1

Lookup: MIC80 / Candida parapsilosis / `O=C(N/N=C/c1cc(Br)ccc1O)c1ccc(Br)cc1Br`
8

Lookup: MIC80 / Candida parapsilosis / `O=C(N/N=C/c1ccc(Br)cc1O)c1ccc(Br)cc1Br`
8

Lookup: MIC80 / Candida parapsilosis / `O=C(N/N=C/c1ccc(Br)cc1O)c1cc(Br)cc(Br)c1O`
2

* * *

Exercise: state measured MIC80 for each of the molecules provided.
tested on: Pichia kudriavzevii; test: Antifungal activity against multi-drug resistant Candida krusei measured after 24 to 72 hrs; format: functional
// units = µg/mL; emit number, no label

What does the record list as MIC80 for `O=C(N/N=C/c1ccc(Br)cc1O)c1cc(Br)cc(Br)c1O` ?
0.25

What does the record list as MIC80 for `O=C(N/N=C/c1cc(Br)cc(Br)c1O)c1ccc(Br)c(Br)c1` ?
4

What does the record list as MIC80 for `O=C(N/N=C/c1cc(Cl)cc(Cl)c1O)c1ccc(Br)c(Br)c1` ?
0.25

* * *

Exercise: state measured fractional inhibitory concentration index (FICI) for each of the molecules provided.
tested on: Candida albicans; experiment: Antifungal activity against Candida albicans assessed as FICI in presence of itraconazole; format: functional
# answer = number (no unit)

What does the record list as fractional inhibitory concentration index (FICI) for `O=C(N/N=C/c1ccc(Br)cc1O)c1ccc(Br)cc1Br` ?
0.128

What does the record list as fractional inhibitory concentration index (FICI) for `O=C(N/N=C/c1cc(Br)ccc1O)c1ccc(Br)cc1Br` ?
0.128

What does the record list as fractional inhibitory concentration index (FICI) for `O=C(N/N=C/c1cc(Br)cc(Br)c1O)c1ccc(Br)c(Br)c1` ?
0.37

What does the record list as fractional inhibitory concentration index (FICI) for `O=C(N/N=C/c1ccc(Br)cc1O)c1cc(Br)cc(Br)c1O` ?
0.188

What does the record list as fractional inhibitory concentration index (FICI) for `O=C(N/N=C/c1cc(Cl)cc(Cl)c1O)c1ccc(Br)c(Br)c1` ?
0.091

* * *

test system: Candida parapsilosis; assay: Antifungal activity against Candida parapsilosis assessed as FICI in presence of voriconazole; assay type: functional
Exercise: state measured fractional inhibitory concentration index (FICI) for each of the compounds provided.
# answer = number (no unit)

What does the record list as fractional inhibitory concentration index (FICI) for `O=C(N/N=C/c1cc(Br)cc(Br)c1O)c1ccc(Br)c(Br)c1` ?
1.03

What does the record list as fractional inhibitory concentration index (FICI) for `O=C(N/N=C/c1cc(Br)ccc1O)c1ccc(Br)cc1Br` ?
0.135

What does the record list as fractional inhibitory concentration index (FICI) for `O=C(N/N=C/c1ccc(Br)cc1O)c1cc(Br)cc(Br)c1O` ?
0.135

What does the record list as fractional inhibitory concentration index (FICI) for `O=C(N/N=C/c1cc(Cl)cc(Cl)c1O)c1ccc(Br)c(Br)c1` ?
1.5

What does the record list as fractional inhibitory concentration index (FICI) for `O=C(N/N=C/c1ccc(Br)cc1O)c1ccc(Br)cc1Br` ?
0.076

* * *

system: HepG2; assay: Cytotoxicity against human HepG2 cells after 24 to 48 hrs by MTT assay; format: functional; settings: read-out: LD50 (the source's name)
MEASURED PROPERTY: CC50 (µg/mL)
// units = µg/mL; emit number, no label

What does the record list as CC50 for `O=C(N/N=C/c1ccc(Br)cc1O)c1cccc(Br)c1` ?
8

What does the record list as CC50 for `O=C(N/N=C/c1ccc(Br)cc1O)c1cccc(C(F)(F)F)c1` ?
16

What does the record list as CC50 for `O=C(N/N=C/c1cc(Br)cc(Br)c1O)c1ccc(F)cc1` ?
32

What does the record list as CC50 for `O=C(N/N=C/c1cc(Br)cc(Br)c1O)c1cccc(OC(F)F)c1` ?
16

What does the record list as CC50 for `O=C(N/N=C/c1cc(C(F)(F)F)ccc1O)c1cccc(Br)c1` ?
16

What does the record list as CC50 for `O=C(N/N=C/c1ccc(Br)cc1O)c1cc(Br)ccc1Br` ?
16

What does the record list as CC50 for `Cc1ccc(O)c(/C=N/NC(=O)c2ccc(Br)cc2Br)c1` ?
16

What does the record list as CC50 for `O=C(N/N=C/c1cc(Cl)cc(Cl)c1O)c1cc(Br)ccc1Br` ?
32

What does the record list as CC50 for `CN(C)c1ccc(C(=O)N/N=C/c2cc(Br)cc(Br)c2O)cc1` ?
16

What does the record list as CC50 for `O=C(N/N=C/c1ccc(Br)cc1O)c1cccc(F)c1F` ?
16

What does the record list as CC50 for `Cc1ccc(O)c(/C=N/NC(=O)c2cc(Br)ccc2Br)c1` ?
32

What does the record list as CC50 for `O=C(N/N=C/c1c(O)ccc2ccccc12)c1ccc(Br)c(Br)c1` ?
16

What does the record list as CC50 for `O=C(N/N=C/c1cc(Br)ccc1O)c1ccc(C(F)(F)F)cc1F` ?
16

What does the record list as CC50 for `O=C(N/N=C/c1cc(Cl)ccc1O)c1cc(Br)ccc1Br` ?
32

What does the record list as CC50 for `O=C(N/N=C/c1cc(Br)cc(Br)c1O)c1cnc2ccccc2c1` ?
32

What does the record list as CC50 for `O=C(N/N=C/c1cc(Br)ccc1O)c1ccc(OC(F)F)cc1` ?
16

What does the record list as CC50 for `O=C(N/N=C/c1cc(Br)ccc1O)c1ccc(Br)c(Br)c1` ?
8

What does the record list as CC50 for `Cc1ccc(O)c(/C=N/NC(=O)c2cc(Br)cc(Br)c2)c1` ?
16

What does the record list as CC50 for `O=C(N/N=C/c1cc(Cl)cc(Cl)c1O)c1ccc(Br)c(Br)c1` ?
32

What does the record list as CC50 for `O=C(N/N=C/c1ccc(Br)cc1O)c1ccc(OC(F)F)cc1` ?
32

What does the record list as CC50 for `O=C(N/N=C/c1cc(Br)cc(Br)c1O)c1ccc(OC(F)F)cc1` ?
16

What does the record list as CC50 for `O=C(N/N=C/c1ccc(Br)cc1O)c1cc(Br)cc(Br)c1` ?
16

What does the record list as CC50 for `O=C(N/N=C/c1cc(Cl)ccc1O)c1cccc(F)c1F` ?
32

* * *

test system: Pichia kudriavzevii; assay: Antifungal activity against Candida krusei 6258 assessed as FICI in presence of voriconazole; assay type: functional
Could you label it true (1) if measured fractional inhibitory concentration index (FICI) is 0.3 or higher, and false (0) otherwise?

Is fractional inhibitory concentration index (FICI) for `O=C(N/N=C/c1ccc(Br)cc1O)c1ccc(Br)cc1Br` at or above 0.3?
true (1)

Is fractional inhibitory concentration index (FICI) for `O=C(N/N=C/c1cc(Br)cc(Br)c1O)c1ccc(Br)c(Br)c1` at or above 0.3?
false (0)

Is fractional inhibitory concentration index (FICI) for `O=C(N/N=C/c1cc(Cl)cc(Cl)c1O)c1ccc(Br)c(Br)c1` at or above 0.3?
true (1)

Is fractional inhibitory concentration index (FICI) for `O=C(N/N=C/c1cc(Br)ccc1O)c1ccc(Br)cc1Br` at or above 0.3?
true (1)

Is fractional inhibitory concentration index (FICI) for `O=C(N/N=C/c1ccc(Br)cc1O)c1cc(Br)cc(Br)c1O` at or above 0.3?
false (0)
